target: T1, human CD3 epsilon (Acro Cat #CDE-H5223) (human, UniProt P07766 23-126); experiment: SPR (Biacore), antibody captured, human CD3 epsilon analyte
T1 construct: Bought recombinant protein; also called rhCD3E
T1 sequence (P07766 23-126 limits assumed): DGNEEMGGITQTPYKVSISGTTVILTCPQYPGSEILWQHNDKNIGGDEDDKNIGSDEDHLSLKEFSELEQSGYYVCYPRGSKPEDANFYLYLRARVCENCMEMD

binder	Kd
2037-B10_Hc-A59D (antibody, human IgG1, lambda, V domains shown, human IgG1, lambda; also called SRP 2037 A59D; 2037-B10_VH-A59D) VH: EVQLVESGGGLVKPGGSLRLSCAASGFTFNKYAMNWVRQAPGKGLEWVARIRTKYNNYDTYYADSVKDRFTISRDDSKNTAYLQMNSLKTEDTAVYYCVRHGNFGNSYISYWAYWGQGTPVTVSS VL: QTVVTQEPSLTVSPGGTVTLTCGSSTGAVTSGYYPNWLQQKPGQAPRGLIGGTKFLAPGTPARFSGSLLGGKAALTLSGVQPEDEAEYYCALWYSNRWVFGGGTQLTVTG	0.476 nM

Values were extracted from patent US20240124585A1.
